For each of the molecules below, state its log10 Saluretic potency.
Tested on: Rattus norvegicus
measurement.notes: Saluretic property was estimated by the excretion of Na+ in rat administered orally; microequiv of Na+ at 16.5 mg/kg […]
Format: ADME, organism-based
Parameters: dose 16.5 mg/kg
test.conditions: in vivo
Please keep in mind that the values are log10 of Saluretic potency expressed in u equiv.

Guide cases for log10 Saluretic potency, answers given:
CC(C)(C)c1cc(I)c(OS(=O)(=O)O)c(CN)c1
0.15
Cl.NCc1c(O)c(Cl)cc(Cl)c1Cl
0.15
CN(C)S(=O)(=O)Oc1c(I)cc(C(C)(C)C)cc1CN.Cl
-0.22
O=C(NCc1c(O)c(Cl)cc(Cl)c1Cl)C(F)(F)F
-0.22

Below is a list of molecules. For each, state its recorded log10 Saluretic potency.
1. CC(C)(C)c1cc(I)c(O)c(CN)c1.Cl
2. CC(C)(C)c1cc(I)c(O)c(CNCCN)c1.Cl
3. CC(C)(C)c1cc(Cl)c(O)c(CN)c1.Cl
4. O=C(CCl)NCc1c(O)c(Cl)cc(Cl)c1Cl
5. CCNS(=O)(=O)Oc1c(I)cc(C(C)(C)C)cc1CN.Cl
6. CN(C)Cc1cc(C(C)(C)C)cc(I)c1O
7. CC(C)(C)c1cc(I)c(OS(=O)(=O)c2ccccc2)c(CN)c1.Cl

# output
0.62
-0.30
0.62
-0.30
0.15
0.43
-0.22

Below is a list of molecules. For each, state its recorded log10 Saluretic potency.
1. CC(C)(C)c1cc(I)c(O)c(CNS(=O)(=O)O)c1
2. CNCc1cc(C(C)(C)C)cc(I)c1O
3. CCCCNCc1cc(C(C)(C)C)cc(I)c1O.Cl
4. CC(C)(C)c1cc(I)c2c(c1)CNC(=O)O2

# output
[-0.30, 0.52, 0.43, -0.40]

* * *

System: Rattus norvegicus
measurement.notes: Saluretic property (excretion of Na+ in rat after PO dosing)
Format: ADME, organism-based
test.conditions: in vivo
For each of the compounds below, state its Saluretic potency.

O=C(NCc1c(O)c(Cl)cc(Cl)c1Cl)C(Cl)(Cl)Cl
< 0.2 u equiv
CN(C)Cc1cc(C(C)(C)C)cc(I)c1O
3.3 u equiv
CC(C)(C)c1cc(I)c(OS(=O)(=O)O)c(CN)c1
2.4 u equiv
COc1c(Cl)cc(Cl)c(Cl)c1CN.Cl
< 0.2 u equiv
CC(C)(C)c1cc(I)c(O)c(CNS(=O)(=O)O)c1
1.2 u equiv
CC(C)(C)c1cc(Cl)c(O)c(CNS(N)(=O)=O)c1
< 0.2 u equiv
CC(C)(C)c1cc(I)c(O)c(CNCCN)c1.Cl
1.2 u equiv
COc1c(I)cc(C(C)(C)C)cc1CN.Cl
< 0.2 u equiv

Below is a list of compounds. For each, state its recorded Saluretic potency.
1. CCNS(=O)(=O)Oc1c(I)cc(C(C)(C)C)cc1CN.Cl
2. CC(C)(C)c1cc(I)c(OS(C)(=O)=O)c(CN)c1.Cl

# output
["2.4 u equiv", "< 0.2 u equiv"]

Below is a list of compounds. For each, state its recorded Saluretic potency.
1. CC(C)(C)c1cc(I)c2c(c1)CNC(=O)O2
2. CC(C)(C)c1cc(I)c(O)c(Cn2cnnn2)c1
3. CCCCNCc1cc(C(C)(C)C)cc(I)c1O.Cl
4. CC(C)(C)c1cc(I)c(O)c(CNC2=NCCS2)c1
5. O=C(CCl)NCc1c(O)c(Cl)cc(Cl)c1Cl
6. CC(C)(C)c1cc(I)c(O)c(CNC2=NCCO2)c1
7. Oc1c(Cl)cc(Cl)c(Cl)c1CN1CCCCC1

# output
0.7 u equiv
< 0.2 u equiv
3.3 u equiv
< 0.2 u equiv
1.2 u equiv
< 0.2 u equiv
< 0.2 u equiv

Below is a list of compounds. For each, state its recorded Saluretic potency.
1. CC(C)(C)c1cc(I)c2c(c1)CNS(=O)(=O)O2
2. CC(C)(C)c1cc(Cl)c(O)c(/C=N/N=C(N)N)c1

# output
1. < 0.2 u equiv
2. < 0.2 u equiv
